Provenance of the data: paper PMC3261798

Recorded melting point, one value per entry.

# example entries with known answers
{"columns": ["compound", "measured.result"],
 "data": [
  ["O=C1NCCSc2c1sc1c(OCc3ccccc3)cccc21 [kb-NB184-38]", "213 to 215 °C"],
  ["COc1ccc2sc3c(c2c1)OCCCNC3=O [kb-NB184-57]", "233 to 237 °C"],
  ["O=C1NCCSc2c1sc1ccc(OCc3ccccc3)cc21 [kb-NB123-66]", "247 to 249 °C"],
  ["COc1cccc2c3c(sc12)C(=O)NCCS3 [kb-NB184-44]", "220 to 224 °C"],
  ["O=C1NCCc2c1[nH]c1ccc(OCc3ccccc3)cc21 [kb-NB123-52]", "208 to 210 °C"]
]}

For the compound shown here, COc1ncc2sc3c(c2n1)SCCNC3=O [kmg-NB4-23] , give the reported melting point.
308 °C (dec.)

For the compound shown here, O=C1NCCCc2c1oc1ccc(O)c(Cl)c21 [kb-NB77-88] , give the reported melting point.
> 300 °C

For the compound shown here, COc1nc(O)c2sc3c(c2n1)SCCNC3=O [kmg-NB5-15A] , give the reported melting point.
295 °C (dec.)

For the compound shown here, O=C1NCCSc2c1sc1ccc(O)c(Br)c21 [kb-NB184-52] , give the reported melting point.
235 to 238 °C (dec.)

For the compound shown here, [N-]=[N+]=Nc1ccc2sc3c(c2c1)SCCNC3=O [mcf292-08] , give the reported melting point.
193 °C (dec.)

For the compound shown here, O=C1NCCSc2c1sc1ccc(N=C=S)cc21 [mcf292-05] , give the reported melting point.
253 to 253.3 °C

For the compound shown here, O=C1NCCCc2c1oc1cc(Cl)c(O)cc21 [kb-NB96-47-5] , give the reported melting point.
327 to 332 °C

For the compound shown here, O=C1NCCCc2c1oc1ccc(O)c(F)c21 [kb-NB96-21] , give the reported melting point.
> 300 °C

For the compound shown here, O=c1oc2ccc(O)c(Cl)c2c2c1NCCC2 [kb-NB96-47-1] , give the reported melting point.
211 to 213 °C

For the compound shown here, CC(=O)Oc1ccc2oc3c(c2c1)CCCN(C(C)=O)C3=O [kb-NB123-45-1] , give the reported melting point.
155 to 157 °C

For the compound shown here, O=C1NCCc2c1[nH]c1ccc(O)cc21 [kb-NB123-59] , give the reported melting point.
244 to 247 °C
